System: fibrocyte formation from human PBMCs
Assay notes: fibrocyte formation (differentiation) assay with PBMCs in serum-free medium
Assay type: cell-based
Condition label: PBMC, read-out: IC50 of inhibition of fibrocyte formation
Assign IC50 to each entry below.
Report only the number, with the unit nM understood.

Data request: What value of measured IC50 is listed for CCC(=O)Nc1nc(C)c(-c2csc(Nc3ccc(N(C)C)cc3)n2)s1 [Compound 1] ?
Data returned: 0.0031

Data request: Let us now turn to COC(=O)c1ccc(-c2ccc(C=C3C(=O)N(c4ccc(S(N)(=O)=O)cc4)N=C3C(F)(F)F)o2)cc1 [Compound 3]
Data returned: 2.2

Data request: Please give the result for CCCOC(=O)c1ccc(-c2ccc(C=C3C(=O)N(c4ccc(S(N)(=O)=O)cc4)N=C3C(F)(F)F)o2)cc1 [Compound 2] too.
Data returned: 0.33
